Molecular target: UniProt:P25774
Assay: Inhibition of cathepsin S in human JY cells assessed as invariant chain-li degradation
Format: cell-based
pIC50: −log10 of the molar value.
measurement.name: pIC50

mol: NC(=O)N1CCc2c(c(-c3ccc(Cl)c(C#Cc4ccc(Cl)c(C(=O)N5CCNCC5)c4)c3)nn2CCCN2CCSCC2)C1
recorded.number: 6.20

(P) NC(=O)C(=O)N1CCc2c(c(-c3ccc(Cl)c(C#Cc4ccc(CNCc5ccc(Cl)cc5)cc4)c3)nn2CCCN2CCSCC2)C1
(Q) NC(=O)N1CCc2c(c(-c3ccc(Cl)c(C#Cc4ccc(CNCc5ccc(Cl)cc5)cc4)c3)nn2CCCN2CCN(c3ccccc3)CC2)C1
(R) CN(C)C(=O)C(=O)N1CCc2c(c(-c3ccc(Cl)c(C#Cc4ccc(CNCc5ccc(Cl)cc5)cc4)c3)nn2CCCN2CCOCC2)C1
Arrange the 3 compounds from largest to smallest pIC50. Show the ranking through the labels, in the order asked for.
P, Q, R

----------
Molecular target: Cathepsin S (Homo sapiens, UniProt P25774)
Sequence (P25774 whole entry): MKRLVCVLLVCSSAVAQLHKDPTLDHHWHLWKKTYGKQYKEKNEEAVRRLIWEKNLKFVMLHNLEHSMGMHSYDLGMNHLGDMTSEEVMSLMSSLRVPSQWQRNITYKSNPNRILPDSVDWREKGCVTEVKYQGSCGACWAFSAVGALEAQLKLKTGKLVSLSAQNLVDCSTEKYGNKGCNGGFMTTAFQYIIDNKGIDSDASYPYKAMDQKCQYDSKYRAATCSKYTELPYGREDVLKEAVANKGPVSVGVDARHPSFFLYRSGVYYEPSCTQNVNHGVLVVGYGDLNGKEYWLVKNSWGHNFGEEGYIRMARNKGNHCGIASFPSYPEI
Assay: Inhibition of cathepsin S in human JY cells assessed as invariant chain-li degradation
Format: cell-based
measurement.name: IC50 (nM)

mol: NC(=O)N1CCc2c(c(-c3ccc(Cl)c(C#Cc4ccc(Cl)c(C(=O)NCCN5CCOCC5)c4)c3)nn2CCCN2CCSCC2)C1
measurement.name: IC50
recorded.number: 610
--
mol: NC(=O)N1CCc2c(c(-c3ccc(Cl)c(C#Cc4ccc(Cl)c(C(=O)NC[C@@H]5CCCN5)c4)c3)nn2CCCN2CCSCC2)C1
measurement.name: IC50
recorded.number: 620
--
mol: C[C@@H]1COCCN1CCCn1nc(-c2ccc(Cl)c(C#Cc3ccc(CNCc4ccc(Cl)cc4)cc3)c2)c2c1CCN(C(N)=O)C2
measurement.name: IC50
recorded.number: 1540

(a) NC(=O)N1CCc2c(c(-c3ccc(Cl)c(C#Cc4ccc(CNCc5ccc(Cl)cc5)cc4)c3)nn2CCCN2CCCCC2)C1
(b) NC(=O)C(=O)N1CCc2c(c(-c3ccc(Cl)c(C#Cc4ccc(CNCc5ccc(Cl)cc5)cc4)c3)nn2CCCN2CCOCC2)C1
(c) CC(=O)NCC(=O)N1CCc2c(c(-c3ccc(Cl)c(C#Cc4ccc(CNCc5ccc(Cl)cc5)cc4)c3)nn2CCCN2CCOCC2)C1
Rank the 3 compounds: largest IC50 first, smallest last. Answer format: the labels, ordered as requested.
c, b, a
(c: 1100 nM, b: 510 nM, a: 200 nM)

----------
Assay: Equilibrium solubility in pH 7.0 phosphate buffer by LC/MS method
Assay type: physicochemical
Examples of compounds with documented solubility thermodynamic follow.

Fill in: solubility thermodynamic of NC(=O)N1CCc2c(c(-c3ccc(Cl)c(C#Cc4ccc(COCC5CNCCO5)cc4)c3)nn2CCCN2CCSCC2)C1 (racemic) is ___
46 µM

Do the same for NC(=O)C(=O)N1CCc2c(c(-c3ccc(Cl)c(C#Cc4ccc(CNCc5ccc(Cl)cc5)cc4)c3)nn2CCCN2CCN(c3ccccc3)CC2)C1 please
< 1 µM

Also C[C@@H]1COCCN1CCCn1nc(-c2ccc(Cl)c(C#Cc3ccc(CNCc4ccc(Cl)cc4)cc3)c2)c2c1CCN(C(=O)C(N)=O)C2 , if possible.
< 1 µM

Same again, this time with CS(=O)(=O)N1CCc2c(c(-c3ccc(Cl)c(C#Cc4ccc(CNCc5ccc(Cl)cc5)cc4)c3)nn2CCCN2CCOCC2)C1
< 1 µM

Request: NC(=O)N1CCc2c(c(-c3ccc(Cl)c(C#Cc4ccc(Cl)c(C(=O)NCCN5CCOCC5)c4)c3)nn2CCCN2CCSCC2)C1
9 µM

----------
Biological target: Cathepsin S (Homo sapiens)
Test: Inhibition of human cathepsin S
pIC50: −log10 of the molar value.
measurement.name: pIC50

mol: NC(=O)C(=O)N1CCc2c(c(-c3ccc(Cl)c(C#Cc4ccc(CNCc5ccc(Cl)cc5)cc4)c3)nn2CCCN2CCOCC2)C1
pIC50: 7.22

(A) C[C@@H]1COCCN1CCCn1nc(-c2ccc(Cl)c(C#Cc3ccc(CNCc4ccc(Cl)cc4)cc3)c2)c2c1CCN(C(=O)C(N)=O)C2
(B) NC(=O)C(=O)N1CCc2c(c(-c3ccc(Cl)c(C#Cc4ccc(CNCc5ccc(Cl)cc5)cc4)c3)nn2CCCN2CCN(c3ccccc3)CC2)C1
Which of the two gives a bigger number for pIC50: A or B ? # reply format: chosen label
B
(B: 8.00, A: 7.30)

----------
Target: Cathepsin S (Homo sapiens)
Test: Inhibition of cathepsin S in human JY cells assessed as invariant chain-li degradation
Type: cell-based
pIC50: −log10 of the molar value.
measurement.name: pIC50

mol: C[C@@H]1COCCN1CCCn1nc(-c2ccc(Cl)c(C#Cc3ccc(CNCc4ccc(Cl)cc4)cc3)c2)c2c1CCN(C(=O)C(N)=O)C2
measurement.name: pIC50
recorded.number: 6.02

(A) CN(C)S(=O)(=O)N1CCc2c(c(-c3ccc(Cl)c(C#Cc4ccc(CNCc5ccc(Cl)cc5)cc4)c3)nn2CCCN2CCOCC2)C1
(B) NC(=O)C(=O)N1CCc2c(c(-c3ccc(Cl)c(C#Cc4ccc(CNCc5ccc(Cl)cc5)cc4)c3)nn2CCCN2CCC(C(F)(F)F)CC2)C1
Select one. Lower pIC50: A or B Use the label to indicate which entry you chose.
A
(A: 5.30, B: 5.75)

----------
Target: Cathepsin S (Homo sapiens)
Experiment: Inhibition of cathepsin S in human JY cells assessed as invariant chain-li degradation
Format: cell-based
measurement.name: IC50 (nM)

(a) NC(=O)N1CCc2c(c(-c3ccc(Cl)c(C#Cc4ccc(CNCc5ccc(Cl)cc5)cc4)c3)nn2CCCN2CCSCC2)C1
(b) NC(=O)C(=O)N1CCc2c(c(-c3ccc(Cl)c(C#Cc4ccc(CNCc5ccc(Cl)cc5)cc4)c3)nn2CCCN2CCCCC2)C1
(c) NC(=O)N1CCc2c(c(-c3ccc(Cl)c(C#Cc4ccc(CNCc5ccc(Cl)cc5)cc4)c3)nn2CCCN2CCOCC2)C1
Ordering criterion: IC50; begin with the maximum. Show the ranking through the labels, in the order asked for.
a, c, b

----------
Target: Cathepsin S (Homo sapiens, UniProt P25774)
Assay: Inhibition of cathepsin S in human JY cells assessed as invariant chain-li degradation
Assay type: cell-based
Measured IC50, listed per entry.

The cases that follow already have their IC50 on record.
mol: NC(=O)N1CCc2c(c(-c3ccc(Cl)c(C#Cc4ccc(C(=O)NC[C@@H]5CCCN5)cc4)c3)nn2CCCN2CCSCC2)C1
IC50: > 10 µM
//
mol: NC(=O)N1CCc2c(c(-c3ccc(Cl)c(C#Cc4ccc(C(=O)NCc5cccnc5)cc4)c3)nn2CCCN2CCSCC2)C1
IC50: > 10 µM

# evaluate next
Need IC50 of NC(=O)N1CCc2c(c(-c3ccc(Cl)c(C#Cc4ccc(C(=O)NCc5ccc(Cl)cc5)cc4)c3)nn2CCCN2CCSCC2)C1 , thanks.
> 10 µM

----------
Quick list: solubility thermodynamic per entry.
Experiment: Equilibrium solubility in pH 7.0 phosphate buffer by LC/MS method
Type: physicochemical

Here's what some known entries look like.
mol: NC(=O)C(=O)N1CCc2c(c(-c3ccc(Cl)c(C#Cc4ccc(CNCc5ccc(Cl)cc5)cc4)c3)nn2CCCN2CCSCC2)C1
measurement.name: solubility thermodynamic
result: < 1 µM

mol: NC(=O)C(=O)N1CCc2c(c(-c3ccc(Cl)c(C#Cc4ccc(CNCc5ccc(Cl)cc5)cc4)c3)nn2CCCN2CCC(C(F)(F)F)CC2)C1
measurement.name: solubility thermodynamic
result: < 1 µM

mol: NC(=O)N1CCc2c(c(-c3ccc(Cl)c(C#Cc4ccc(C(=O)NC[C@@H]5CCCN5)cc4)c3)nn2CCCN2CCSCC2)C1
measurement.name: solubility thermodynamic
result: 81 µM

mol: C[C@@H]1COCCN1CCCn1nc(-c2ccc(Cl)c(C#Cc3ccc(CNCc4ccc(Cl)cc4)cc3)c2)c2c1CCN(C(N)=O)C2
measurement.name: solubility thermodynamic
result: 3 µM

mol: NC(=O)C(=O)N1CCc2c(c(-c3ccc(C(F)(F)F)c(SCCN4CCC(F)CC4)c3)nn2C[C@@H](O)CN2CCCCC2)C1
measurement.name: solubility thermodynamic
result: < 1 µM

GET /values?readout=solubility thermodynamic&item= NC(=O)C(=O)N1CCc2c(c(-c3ccc(Cl)c(C#Cc4ccc(CNCc5ccc(Cl)cc5)cc4)c3)nn2CCCN2CCOCC2)C1
< 1 µM

Continue with NC(=O)N1CCc2c(c(-c3ccc(Cl)c(C#Cc4ccc(CNCc5ccc(Cl)cc5)cc4)c3)nn2CCCN2CCC(C(F)(F)F)CC2)C1
< 1 µM

// same read-out, input: NC(=O)N1CCc2c(c(-c3ccc(Cl)c(C#Cc4ccc(Cl)c(C(=O)N5CCNCC5)c4)c3)nn2CCCN2CCSCC2)C1
66 µM

Entry NC(=O)N1CCc2c(c(-c3ccc(Cl)c(C#Cc4ccc(CNCc5ccc(Cl)cc5)cc4)c3)nn2CCCN2CCSCC2)C1 please
< 1 µM

Another: CN(C)C(=O)C(=O)N1CCc2c(c(-c3ccc(Cl)c(C#Cc4ccc(CNCc5ccc(Cl)cc5)cc4)c3)nn2CCCN2CCOCC2)C1
< 1 µM

Next entry: NC(=O)N1CCc2c(c(-c3ccc(Cl)c(C#Cc4ccc(Cl)c(C(=O)NC[C@@H]5CCCN5)c4)c3)nn2CCCN2CCSCC2)C1
175 µM
